Reference for the values: paper PMC2892826

TARGET UNDER TEST: CT-L activity of purified 20S proteasome (Oryctolagus cuniculus, UniProt G1SU71+G1T4Q9)
Sequence (G1T4Q9 60-263): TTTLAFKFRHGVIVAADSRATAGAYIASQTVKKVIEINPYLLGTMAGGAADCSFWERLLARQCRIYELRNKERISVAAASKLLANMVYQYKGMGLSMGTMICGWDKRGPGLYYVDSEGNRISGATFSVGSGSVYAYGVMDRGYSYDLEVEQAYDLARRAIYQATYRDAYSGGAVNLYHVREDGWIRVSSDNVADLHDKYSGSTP
Sequence (G1SU71 29-241): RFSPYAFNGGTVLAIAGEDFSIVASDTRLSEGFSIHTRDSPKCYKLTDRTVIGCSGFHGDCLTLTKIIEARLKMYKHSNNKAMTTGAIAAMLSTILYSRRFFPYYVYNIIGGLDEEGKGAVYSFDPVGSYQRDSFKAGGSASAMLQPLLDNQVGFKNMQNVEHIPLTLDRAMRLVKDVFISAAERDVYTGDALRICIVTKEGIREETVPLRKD
ASSAY REMARKS: Proteolytic activity of purified 20S proteasome, CT-L
MEASUREMENT PARAMETERS: read-out: IC50 CT-L; purified 20S proteasome, in vitro
ENDPOINT NAME: pIC50
Remember the convention: pIC50 equals -log10 of concentration in molar.

[in] Data request, read-out pIC50, for O=C1C(Cl)=C(Nc2ccc(S(=O)(=O)Nc3ccccn3)cc2)C(=O)c2ccccc21 [PI-083]
[out] 6.00

###

TARGET UNDER TEST: T-L activity of purified 20S proteasome (Oryctolagus cuniculus)
Sequence (G1SWK8 44-271): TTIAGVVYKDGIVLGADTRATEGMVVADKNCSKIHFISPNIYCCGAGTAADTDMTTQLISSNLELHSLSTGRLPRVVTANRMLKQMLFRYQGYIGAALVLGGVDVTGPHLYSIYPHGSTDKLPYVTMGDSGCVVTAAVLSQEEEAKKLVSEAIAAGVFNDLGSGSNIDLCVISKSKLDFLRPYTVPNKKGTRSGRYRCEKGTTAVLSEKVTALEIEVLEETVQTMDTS
ASSAY REMARKS: Proteolytic activity of purified 20S proteasome, T-L
Assay type: biochemical, rabbit
MEASUREMENT PARAMETERS: read-out: IC50 T-L, in vitro
ENDPOINT NAME: IC50 (µM)
Report as a plain number; the unit µM is understood.

[in] Find the measured IC50: item O=C1C(Cl)=C(Nc2ccc(S(=O)(=O)Nc3ccccn3)cc2)C(=O)c2ccccc21 [PI-083] , target or system T-L activity of purified 20S proteasome (Oryctolagus cuniculus).
[out] 4.5

###

Test system: primary multiple myeloma cells from patients' bone marrow
ASSAY REMARKS: Cell death of primary MM cells
Type: cell-based, human
MEASUREMENT PARAMETERS: read-out: IC50 Cell Death; patient 2, 24 h
pIC50: −log10 of the molar value.
ENDPOINT NAME: pIC50

[in] Data request, read-out pIC50, for CC(C)C[C@H](NC(=O)[C@H](Cc1ccccc1)NC(=O)c1cnccn1)B(O)O [Bortezomib]
[out] < 5.00

###

TARGET UNDER TEST: CT-L activity of the proteasome in primary multiple myeloma cells (Homo sapiens, UniProt P20618+P28074)
Sequence (P28074 60-263): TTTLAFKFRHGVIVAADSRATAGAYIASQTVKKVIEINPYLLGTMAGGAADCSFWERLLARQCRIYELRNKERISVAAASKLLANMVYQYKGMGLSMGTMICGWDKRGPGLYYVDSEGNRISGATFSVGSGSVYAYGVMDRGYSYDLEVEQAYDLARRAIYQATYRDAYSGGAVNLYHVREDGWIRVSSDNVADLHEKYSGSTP
Sequence (P20618 29-241): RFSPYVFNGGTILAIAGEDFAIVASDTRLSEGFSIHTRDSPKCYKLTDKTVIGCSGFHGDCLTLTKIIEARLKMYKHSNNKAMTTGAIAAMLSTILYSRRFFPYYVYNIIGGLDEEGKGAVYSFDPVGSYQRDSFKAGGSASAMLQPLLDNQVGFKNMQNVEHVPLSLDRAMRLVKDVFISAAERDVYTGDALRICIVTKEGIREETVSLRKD
ASSAY REMARKS: CT-L activity in primary MM cells from patients' bone marrow
Type: cell-based
MEASUREMENT PARAMETERS: read-out: IC50 CT-L Activity; patient 6, 24 h
ENDPOINT NAME: pIC50
Remember the convention: pIC50 equals -log10 of concentration in molar.

[in] Data request, read-out pIC50, for O=C1C(Cl)=C(Nc2ccc(S(=O)(=O)Nc3ccccn3)cc2)C(=O)c2ccccc21
[out] 5.92

###

Test system: primary multiple myeloma cells from patients' bone marrow
ASSAY REMARKS: Proliferation of primary MM cells
Type: cell-based, human
MEASUREMENT PARAMETERS: read-out: IC50 Proliferation; patient 3, 24 h
pIC50: −log10 of the molar value.
ENDPOINT NAME: pIC50

[in] Data request, read-out pIC50, for CC(C)C[C@H](NC(=O)[C@H](Cc1ccccc1)NC(=O)c1cnccn1)B(O)O [Bortezomib]
[out] < 5.00

###

Test system: T80-Hras ovarian cells
ASSAY REMARKS: MTT cell viability assay
Type: cell-based, human
MEASUREMENT PARAMETERS: read-out: IC50 cell viability (MTT); T80-Hras, 24 h
ENDPOINT NAME: pIC50
Remember the convention: pIC50 equals -log10 of concentration in molar.

[in] Data request, read-out pIC50, for O=C1C(Cl)=C(Nc2ccc(S(=O)(=O)Nc3ccccn3)cc2)C(=O)c2ccccc21 [PI-083]
[out] 5.82

###

Test system: primary multiple myeloma cells from patients' bone marrow
ASSAY REMARKS: Cell death of primary MM cells
Assay type: cell-based, human
MEASUREMENT PARAMETERS: read-out: IC50 Cell Death; patient 9, 24 h
ENDPOINT NAME: IC50

[in] Data request, read-out IC50, for CC(C)C[C@H](NC(=O)[C@H](Cc1ccccc1)NC(=O)c1cnccn1)B(O)O [Bortezomib]
[out] > 10 µM

###

TARGET UNDER TEST: CT-L activity of the proteasome in primary multiple myeloma cells (Homo sapiens, UniProt P20618+P28074)
Sequence (P28074 60-263): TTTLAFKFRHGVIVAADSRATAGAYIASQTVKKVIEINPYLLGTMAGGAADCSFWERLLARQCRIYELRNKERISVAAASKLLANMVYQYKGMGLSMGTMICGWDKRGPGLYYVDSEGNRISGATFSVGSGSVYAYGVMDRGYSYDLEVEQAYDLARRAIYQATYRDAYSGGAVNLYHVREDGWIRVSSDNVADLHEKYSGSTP
Sequence (P20618 29-241): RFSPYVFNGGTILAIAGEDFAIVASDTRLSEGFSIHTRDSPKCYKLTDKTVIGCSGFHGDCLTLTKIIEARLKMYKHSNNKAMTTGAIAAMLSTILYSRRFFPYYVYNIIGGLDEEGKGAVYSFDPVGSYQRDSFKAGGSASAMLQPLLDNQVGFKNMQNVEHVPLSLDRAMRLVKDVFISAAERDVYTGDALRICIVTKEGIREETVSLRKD
ASSAY REMARKS: CT-L activity in primary MM cells from patients' bone marrow
Type: cell-based
MEASUREMENT PARAMETERS: read-out: IC50 CT-L Activity; patient 9, 24 h
ENDPOINT NAME: pIC50
Remember the convention: pIC50 equals -log10 of concentration in molar.

[in] Data request, read-out pIC50, for O=C1C(Cl)=C(Nc2ccc(S(=O)(=O)Nc3ccccn3)cc2)C(=O)c2ccccc21
[out] 5.74

###

Tested on: CaLu-1 lung cancer cells
ASSAY REMARKS: MTT cell viability assay
Type: cell-based, human
MEASUREMENT PARAMETERS: read-out: IC50 cell viability (MTT); CaLu-1, 24 h
ENDPOINT NAME: IC50

[in] Data request, read-out IC50, for O=C1C(Cl)=C(Nc2ccc(S(=O)(=O)Nc3ccccn3)cc2)C(=O)c2ccccc21 [PI-083]
[out] 7.3 µM

###

Tested on: primary multiple myeloma cells from patients' bone marrow
ASSAY REMARKS: Viability of primary MM cells
Type: cell-based, human
MEASUREMENT PARAMETERS: read-out: IC50 Viability; patient 3, 24 h
pIC50: −log10 of the molar value.
ENDPOINT NAME: pIC50

[in] Find the measured pIC50: item O=C1C(Cl)=C(Nc2ccc(S(=O)(=O)Nc3ccccn3)cc2)C(=O)c2ccccc21 [PI-083] , target or system primary multiple myeloma cells from patients' bone marrow.
[out] < 5.00

###

System: T80-Hras ovarian cells
ASSAY REMARKS: MTT cell viability assay
Format: cell-based, human
MEASUREMENT PARAMETERS: Homo sapiens, 72 h, read-out: IC50 cell viability (MTT)
ENDPOINT NAME: pIC50
Remember the convention: pIC50 equals -log10 of concentration in molar.

[in] Find the measured pIC50: item CC(C)C[C@H](NC(=O)[C@H](Cc1ccccc1)NC(=O)c1cnccn1)B(O)O , target or system T80-Hras ovarian cells.
[out] 7.62

###

Test system: RPMI-8226 multiple myeloma cells
ASSAY REMARKS: MTT cell viability assay
Assay type: cell-based, human
MEASUREMENT PARAMETERS: read-out: IC50 cell viability (MTT); RPMI-8226, 24 h
ENDPOINT NAME: IC50 (µM)
Report as a plain number; the unit µM is understood.

[in] Data request, read-out IC50, for O=C1C(Cl)=C(Nc2ccc(S(=O)(=O)Nc3ccccn3)cc2)C(=O)c2ccccc21
[out] 7.4
